# measurement.protocol: in vitro
# protocol.conditions: human, hela cells, % viability
Below: a set of entries, each annotated with reported viability at 28.5 h, 10 µM.

{"columns": ["molecule", "viability at 28.5 h, 10 µM, %"],
 "data": [
  ["O=C(CSCC(=O)Nc1ccc2ccccc2c1)NCC1CCCO1 (stereo not drawn)", 89.6],
  ["c1coc(-c2cn3ccnc3c(Nc3ccc4[nH]ccc4c3)n2)c1", 91.9],
  ["Cc1ccc2nc(NC(=O)c3cc(C)n(C)n3)sc2c1", 83.9],
  ["OCCN1CCN(c2ccc(-c3cc(C(F)(F)F)cc(C(F)(F)F)c3)cn2)CC1", 99],
  ["CC(=O)Nc1ccc(S(=O)(=O)NC2(C(F)(F)F)C(=O)Nc3c2c(=O)[nH]c(=S)n3Cc2ccco2)cc1 (stereo not drawn)", 96.8],
  ["Cc1ccc(NC(=O)c2ccccc2OCC(=O)NC23CC4CC(CC(C4)C2)C3)cc1Cl", 101],
  ["CCN(CCc1nc2cc(OC)ccc2[nH]1)C(=O)c1ccc(=O)n(C)c1", 77],
  ["CCCOC(=O)N(O)c1ccc(Cl)c(Cl)c1", 94.4],
  ["COc1cccc2c1cc(C(=O)NCCCc1ccccn1)n2C", 83.7]
]}

* * *

# measurement.protocol: in vitro
# protocol.conditions: human, hela cells, % viability
Mark Condition met only for viability at 28.5 h, 10 µM values smaller than 90%; exact matches and larger values are Condition not met.

{"columns": ["compound", "class.label"],
 "data": [
  ["O=C(CSc1nc2ccccc2s1)OCC(=O)c1cccc([N+](=O)[O-])c1 [CBK262361]", "Condition not met"],
  ["CC(C)(C)OC(=O)NCCc1ccc(Nc2cc(-c3ccsc3)ncn2)cc1 [CBK090958]", "Condition not met"],
  ["CCc1cccc(CC)c1NC(=O)CN(c1cccc(Br)c1)S(C)(=O)=O [CBK265986]", "Condition met"],
  ["CC(C(=O)NCCn1nc(-c2ccco2)ccc1=O)c1ccccc1 (stereo not drawn) [CBK283861]", "Condition not met"],
  ["O=C(O)CCC(NC(=O)c1ccc(-c2ccc(F)cc2)s1)C(=O)O (stereo not drawn) [CBK295172]", "Condition not met"],
  ["CCN1CCC(Oc2nccnc2OCCN2CCOCC2)CC1 [CBK082931]", "Condition not met"]
]}

* * *

# measurement.protocol: in vitro
# protocol.conditions: human, hela cells, % viability
viability at 28.5 h, 10 µM overview

{"columns": ["molecule", "unit.abbrev", "viability at 28.5 h, 10 µM"],
 "data": [
  ["Cc1cccn2c(CN3CCCOCC3)c(C(=O)N3CCOCC3)nc12 [CBK307144]", "%", 111],
  ["CC1(C)CC(=O)c2sc(NC(=O)c3cncnc3)nc2C1 [CBK144107]", "%", 101],
  ["Cc1cc(C(=O)NCc2ccc(-c3csnn3)cc2)n[nH]1 [CBK149314]", "%", 88.8],
  ["Cc1ccc(OCC(=O)Nc2ccc(N3CCN(Cc4ccccc4)CC3)cc2)cc1C [CBK266085]", "%", 101],
  ["CCn1cc(-c2cncn2CCCC(C)(C)CO)cn1 [CBK281704]", "%", 88.3],
  ["Cc1noc(C2(O)CCN(Cc3sccc3Cl)C2)n1 (stereo not shown) [CBK304863]", "%", 97.5],
  ["O=C(c1cscn1)N1CCC(Cc2ccccc2)CC1 [CBK200188]", "%", 103],
  ["CC(=O)Nc1cccc(-c2cncc(NCc3cccc(Cl)c3)n2)c1 [CBK065236]", "%", 97.2],
  ["O=C(O)C1CCN(Cc2ccc(Cl)cc2)CC1 [CBK286895]", "%", 89.3],
  ["Cc1ccsc1C(=O)Nc1ncn(CC(=O)N2CCCCCC2)n1 [CBK304192]", "%", 92.5],
  ["Cc1ccc(O)c(CN[C@@H]2CCC[C@H]2Cc2cc(C)no2)c1 [CBK284936]", "%", 101],
  ["COc1ccc2c(C)nc(NC3=NC(c4ccccc4)CC(=O)N3)nc2c1 (stereo not shown) [CBK270230]", "%", 85.4],
  ["Cn1nnnc1SCC(=O)Nc1ccc(C(=O)O)cc1 [CBK267442]", "%", 87.3],
  ["COc1ccc(C(C)NC(=O)c2c3c(nn2C)CCCC3)cc1F (stereo not shown) [CBK281406]", "%", 106],
  ["O=C(Nc1nnc(-c2ccccc2)o1)c1ccc2ncsc2c1 [CBK287598]", "%", 94.4],
  ["Fc1ccc(-c2nccnc2OCc2ccccn2)cc1 [CBK106894]", "%", 99.6],
  ["Cc1nn2cc(-c3n[nH]cc3[N+](=O)[O-])cnc2c1C(N)=O [CBK268957]", "%", 87.4],
  ["COc1ccc([C@]23CN(C)C[C@H]2CCN(C(=O)Nc2cccc(Cl)c2)C3)cc1OC [CBK075104T]", "%", 112],
  ["c1ccc(CCN2CCCN(c3ccnc(OCCN4CCOCC4)n3)CC2)nc1 [CBK083813]", "%", 94.9],
  ["CCN(CC)S(=O)(=O)c1ccc(C)c(NS(=O)(=O)c2cc(C(=O)O)n(C)c2)c1 [CBK297782]", "%", 99.5],
  ["C=CCn1c(SCC(=O)Nc2ccc(C(=O)OC)cc2)nnc1-c1ccc(Br)cc1 [CBK101797]", "%", 92.8],
  ["COc1cc2c(cc1OC)CN(CCN1CCCCC1)CC2 [CBK126439]", "%", 101],
  ["CC(CCc1ccccc1)N1CCN(S(=O)(=O)c2ccc3ccccc3c2)CC1 (stereo not shown) [CBK264240]", "%", 104],
  ["COc1cccc2sc(NC(=O)c3c(F)cccc3F)nc12 [CBK149283]", "%", 95.5],
  ["COc1cc(C(=O)CCN2CCCCC2)cc(OC)c1OC [CBK015639C]", "%", 107],
  ["CCC(Oc1ccc(C)cc1)C(=O)Nc1ccccc1C(=O)N1CCOCC1 (stereo not shown) [CBK270132]", "%", 85.6],
  ["O=C(c1cc(C2CC2)on1)N1CCc2ncc(Cl)cc2C1 [CBK284855]", "%", 106],
  ["N#CCCCN1CCCN(c2cc(OCC3COc4ccccc4O3)ncn2)CC1 (stereo not shown) [CBK083391T]", "%", 85.8],
  ["Cc1cc(NC(=O)C2CCN(c3ncccc3C#N)CC2)no1 [CBK305689]", "%", 88.3],
  ["COc1ccc(-n2nc(C)c3onc(C)c3c2=O)cc1 [CBK000853]", "%", 101],
  ["CC(NC(=O)N1CCSCC1)c1cccc(N2CCCC2)c1 (stereo not shown) [CBK305230]", "%", 92],
  ["O=c1n(Cc2ccncc2)nc(C(F)(F)F)c2cccn12 [CBK283966]", "%", 87],
  ["c1ccc(Sc2cccc3ccccc23)nc1 [CBK085856]", "%", 91.8],
  ["O=C(Cc1ccc(Cl)cc1)NC(=S)Nc1ccccc1O [CBK263905]", "%", 96.6],
  ["O=C(O)c1ccccc1-c1ccc(/C=C2\\S/C(=N\\c3ccccc3)N(c3ccccc3)C2=O)o1 [CBK262566]", "%", 101],
  ["COc1cccc(NC(=O)CN(c2cccc(C(C)=O)c2)S(C)(=O)=O)c1 [CBK267502]", "%", 111],
  ["CC(=O)N1C[C@@H]2CCCCN(CCOc3ccccc3)[C@@H]2C1 [CBK285494]", "%", 107],
  ["FC(F)(F)c1cccc(OCCN2CCNCC2)n1 [CBK113291]", "%", 91.5],
  ["Clc1ccc(-c2ccc(/C=N/c3ccc4oc(-c5ccccc5)nc4c3)o2)cc1 [CBK261969]", "%", 102],
  ["CCN(CC)C(=O)CN1C2CCC1CC(O)(c1ccco1)C2 (stereo not shown) [CBK284094]", "%", 106]
]}

Ref: paper PMC12040169
